Dear all, I have gathered published pKi values for D(3) dopamine receptor (Homo sapiens, UniProt P35462); the list follows.
Note on pKi: it is the negative log10 of concentration, concentration in mol/L.

Q: I'm curious: which pKi was measured for COc1ccccc1N1CCN(CCCCNC2=CC=CC3=[N+]4[N+](=Cc5c(C)cc(C)n5[B-]4(F)F)[B-](F)(F)N23)CC1 tested on D(3) dopamine receptor (Homo sapiens, UniProt P35462)?
A: 7.57

Q: Form field - read-out: pKi; system: D(3) dopamine receptor (Homo sapiens, UniProt P35462); submitted item: O=C(NCCCCN1CCN(c2ccccc2)CC1)c1cc2ccccc2cn1
Sequence (P35462 whole entry): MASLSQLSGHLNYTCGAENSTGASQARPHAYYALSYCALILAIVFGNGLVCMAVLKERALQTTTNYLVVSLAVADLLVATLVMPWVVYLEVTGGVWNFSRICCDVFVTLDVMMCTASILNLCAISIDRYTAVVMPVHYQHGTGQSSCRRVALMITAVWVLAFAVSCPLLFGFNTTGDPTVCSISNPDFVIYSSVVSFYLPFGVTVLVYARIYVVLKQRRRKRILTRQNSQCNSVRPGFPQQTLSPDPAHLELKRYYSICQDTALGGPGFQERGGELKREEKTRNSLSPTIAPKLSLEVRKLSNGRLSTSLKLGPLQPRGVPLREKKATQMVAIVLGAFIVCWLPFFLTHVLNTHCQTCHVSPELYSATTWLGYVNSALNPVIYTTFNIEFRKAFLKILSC
A: 7.92

Q: Requested read-out pKi, target or system D(3) dopamine receptor (Homo sapiens, UniProt P35462), entry COc1ccccc1N1CCN(CCCCNC(=O)c2ccc3c(c2)OCO3)CC1
A: 7.83

New cases:
Q: What is its pKi for D(3) dopamine receptor (Homo sapiens, UniProt P35462)? Entry: COc1ccccc1N1CCN(CCCCn2cc(-c3ccc4c(c3)Cc3ccccc3-4)nn2)CC1
A: 8.26

Q: Item: O=C(NCCCN1CCN(c2ccc(Cl)cc2)CC1)NN(Cc1ccccc1)c1ccccc1 Test system: D(3) dopamine receptor (Homo sapiens, UniProt P35462) Read-out: pKi Value: ?
A: 5.96

Q: What is its pKi for D(3) dopamine receptor (Homo sapiens, UniProt P35462)? Entry: O=C1CCc2ccccc2N1CCCCN1CCN(c2ccccc2)CC1
A: 7.09

Q: Value wanted: pKi (D(3) dopamine receptor (Homo sapiens, UniProt P35462)) of entry Cc1ccc2c(C(=O)N[C@H]3CC[C@H](CCN4CCc5ccc(S(C)(=O)=O)cc5CC4)CC3)ccc(F)c2n1
A: 8.50

Q: Request body: readout pKi, system D(3) dopamine receptor (Homo sapiens, UniProt P35462), query COc1ccc2c(c1)Cc1ccccc1CCN(C)CC2 . Return the value.
A: 6.82

* * *

Compiled notes: published Ki values involving D(3) dopamine receptor (Homo sapiens).
Number only, in nM; omit the unit.

Solved entries (count: 2):
Q: Give recorded Ki with D(3) dopamine receptor (Homo sapiens) for the following compound: c1c2c(cc3c1CC[C@@H]1[C@@H]3OCCN1CC1CC1)OCC2
A: 63.1

Q: # returns recorded Ki (system: D(3) dopamine receptor (Homo sapiens)) for O=C1CCc2ccccc2N1CCCN1CCN(c2ccc([N+](=O)[O-])cc2)CC1
A: 11000

# next compound below
Q: Ki of O=C(NC[C@H]1C[C@@H]1CN1CCN(c2cccc(Cl)c2Cl)CC1)c1ccc(-c2ccccn2)cc1 (relative stereo) on D(3) dopamine receptor (Homo sapiens)?
A: 1

* * *

// merged dataset of pKi values, system = D(3) dopamine receptor (Homo sapiens), multiple refs
Lab note: report pKi as minus log10 of the concentration in molar units, number only.

Q: Which pKi is reported with D(3) dopamine receptor (Homo sapiens) for this entry: COc1ccc(NCCN2CCN(Cc3cc4ccccc4[nH]3)CC2)cc1 ?
A: 4.74

Q: Hi! What's the reported pKi for COc1ccc2c(c1)[C@H]1OCCN(CCCCNC(=O)c3cccs3)[C@@H]1CO2 (racemic) on D(3) dopamine receptor (Homo sapiens)?
A: 8.18

Q: Find the measured pKi: item CCN(CC)CCCC(C)Nc1cnc(C(=O)Nc2cc(F)cc3cccnc23)cn1 (centres undefined) , target or system D(3) dopamine receptor (Homo sapiens).
A: 6.14

Q: GET /values?readout=pKi&system=D(3) dopamine receptor (Homo sapiens)&item= Cn1c(N2CCCC2)nc2c(CN3CCN(c4ccc(Cl)c(Cl)c4)CC3)c[nH]c2c1=O
A: 6.32

Q: Item COc1ccccc1N1CCN(CNC(=O)c2ccc(C)cc2)CC1 with D(3) dopamine receptor (Homo sapiens) - pKi?
A: 6.76

Further cases:
Q: Checklist item: pKi tested on D(3) dopamine receptor (Homo sapiens), entry Cc1nn2c(C#N)cccc2c1CN1CCN(c2ccc(Cl)cc2)CC1 , value?
A: 4.68

Q: # get_value(readout= pKi, system= D(3) dopamine receptor (Homo sapiens)) for c1ccc(OCC2CN(Cc3c[nH]c4ccccc34)CCO2)cc1 (centres undefined)
A: 5.83

Q: What is its pKi for D(3) dopamine receptor (Homo sapiens)? Entry: COc1ccccc1N1CCN(CCCNC(=O)NN(Cc2ccc(F)cc2)c2ccc(F)cc2)CC1
A: 7.07

Q: Checklist item: pKi tested on D(3) dopamine receptor (Homo sapiens), entry N#Cc1cc(N2CCN(CC[C@H]3CC[C@H](NS(N)(=O)=O)CC3)CC2)cc(C(F)(F)F)c1 , value?
A: 9.17

Q: Missing value: pKi, D(3) dopamine receptor (Homo sapiens), entry COc1cc(N(C)C(C)=O)c(Cl)cc1C(=O)NC[C@@H]1CCN(Cc2ccccc2)C1 . Fill in?
A: 5.14

* * *

Ki values for D(3) dopamine receptor (Homo sapiens), compiled from several publications.
Give just the number in nM; leave the unit off.

Example cases with answers are listed next.
Q: Find Ki (D(3) dopamine receptor (Homo sapiens)) for the entry COc1ccc(-c2cc(CCCCN3CCN(c4ccccc4)CC3)on2)cc1OC
A: 24

Q: Look up Ki with D(3) dopamine receptor (Homo sapiens) for this compound: Brc1ccc2c(c1)C1CN(Cc3ccccc3)CC1CO2 (stereo in doubt; trans)
A: 15.8

Q: // fetch D(3) dopamine receptor (Homo sapiens) Ki for O=C(NCCCCN1CCN(c2cc3ccc2CCc2ccc(cc2)CC3)CC1)c1cc2ccccc2s1
A: 1.6

Okay, next one:
Q: Form entry - test system: D(3) dopamine receptor (Homo sapiens); read-out: Ki; compound: Ic1cccn1C1CCN(Cc2ccccc2)CC1
A: 2600

* * *

pKi: −log10 of the molar value.
Collected pKi for D(3) dopamine receptor (Homo sapiens) across several studies; compounds listed below.
Response key: yes (1) means pKi >= 7; no (0) means pKi < 7.

Consider the following illustrative entries.
Q: hey, is pKi for this one >= 7? Cc1cccc(N2CCN(CCCCNC(=O)c3ccccn3)CC2)n1
A: no (0)

Q: Quick check: does Cn1c(N2CCOCC2)nc2c(CN3CCN(c4ccccc4)CC3)c[nH]c2c1=O have pKi greater than or equal to 7?
A: no (0)

Q: // inclusive: pKi at least 7? input: c1ccc(-c2nc(CN3CCN(c4ccncn4)CC3)c[nH]2)cc1
A: no (0)

---
Q: Could you please find out whether C=CCN1C[C@H](OCc2cccnc2)C[C@H]1CNC(=O)c1cc(CCCF)cc(OC)c1OC has pKi that meets 7 or exceeds it?
A: yes (1)

Q: Hi, just wondering whether CN(C[C@H]1C[C@@H]1CCNC(=O)c1cc2ccccc2[nH]1)[C@@H]1Cc2cccc3[nH]c(=O)n(c23)C1 shows pKi of 7 or higher.
A: yes (1)

Q: In plain terms: is recorded pKi at least 7 for CC1CN(CCOc2ccccc2Cc2ccccc2)CCO1 (stereo unspecified) ?
A: no (0)

Q: pKi >= 7 for C[C@@H]1Cc2c([nH]c3ccccc23)Cc2ccccc2CCN1C ?
A: no (0)

Q: I'd appreciate it if you could say whether COc1ccc(NC(=O)N2CCN(c3ccccc3Cl)CC2)cc1N1CCN(C)CC1 has pKi at least equal to 7.
A: no (0)

Q: Please indicate if the recorded pKi for O=C(NCCCCN1CCN(c2ccccc2OCC[18F])CC1)c1cc2ccccn2n1 meets or exceeds 7.
A: yes (1)

Q: Item COc1ccccc1N1CCN(CCc2cn(-c3ccn4ncc(C=O)c4c3)nn2)CC1 with pKi of 7 or above?
A: yes (1)

Q: Is it the case that COc1cc2c(cc1OC)C1=NO[C@@H](CN3CCN(C/C=C(\C)c4ccccc4)CC3)[C@@H]1CO2 has pKi reaching or exceeding 7?
A: no (0)

Q: Does pKi meet or surpass 7 for c1ccc(CN2CCC(n3cccc3-c3cnco3)CC2)cc1 ?
A: no (0)

Q: Can OC(c1ccccc1)c1ccccc1OCCN1CCCC1 (stereo unspecified) be said to have pKi at or above 7?
A: no (0)

Q: Decide: pKi of OC1(Cc2ccc(Cl)cc2)CCN(Cc2c[nH]c3ccccc23)CC1 >= 7?
A: no (0)

* * *

Literature pKi values, system: D(3) dopamine receptor (Homo sapiens).
Answer as the number alone; pKi is minus log10 of concentration in mol/L.

Q: # lookup: pKi of CCOC(=O)c1cnn2cccc(CN3CCN(c4ccc(Cl)cc4)CC3)c12
A: 4.92

Q: Entry O=C(NCCCCN1CCN(c2ccccc2OCCF)CC1)c1c[nH]c2ccccc12 : reported pKi = ?
A: 9.05

Q: For the compound shown here, COc1ccccc1N1CC2(CCN(CCCSc3nnc(-c4ccccc4)n3C)CC2)C1 , give the reported pKi.
A: 6.63

Q: What measured pKi goes with Cc1cccn2cc(-c3ccc(OCCCN4CCN(c5cccc(Cl)c5Cl)CC4)cc3)nc12 ?
A: 6.65

Q: Dear colleague, I am looking for the recorded pKi of the following compound: CCc1cc(Cl)c(OC)c(C(=O)NC[C@@H]2C[C@@H](OCCCc3ccccc3)CN2)c1O
A: 8.58

Q: I am curious: what pKi value has been reported for COc1ccccc1N1CCC12CN(CCCSc1nnc(-c3ccccc3)n1C)C2 ?
A: 5.32

Q: Given the compound C1C2C3CC4C2C2C1C3[C@H](NCC13C5C6C7C5C1C7C63)C42 (some centres not stated) , what is its reported pKi?
A: 5.27

Q: Any idea what pKi was measured for CS(=O)(=O)Nc1cc(OCCNCc2ccccc2)ccc1Cl ?
A: 7.96

Q: Reported pKi, compound N#Cc1ccc2c(c1)[C@H]1CN(Cc3ccc(F)cc3)C[C@@H]1CO2 : ____
A: 8.20

Q: Fill in: pKi of OC1(c2ccc(F)cc2)CCN(Cc2c[nH]c3ccccc23)CC1 is ___
A: 6.31

Q: Recorded pKi of CN1CCc2cc(O)c(O)cc2C1Cc1ccccc1Br (configuration not stated) , please.
A: 6.71

Q: Quick one: pKi of O=C(NCCCCN1CCC[C@@H]2c3ccccc3CC[C@H]21)c1ccc(-c2ccccc2)cc1 ?
A: 7.80

Q: Given OC1(c2ccc(Cl)cc2)CCN(Cc2c[nH]c3ccccc23)C1 (configuration not stated) , state its recorded pKi.
A: 5.54

Q: Look up pKi: COC1(c2ccc(Cl)cc2)CCN(Cc2c[nH]c3ccccc23)CC1
A: 6.58

Q: Item under review: COc1ccc(N(Cc2ccc(C#N)cc2)NC(=O)NCCCN2CCN(c3ccccc3OC)CC2)cc1 . Reported pKi?
A: 6.66

Q: What value of pKi has been recorded for this entry: Fc1ccccc1N1CCN(CCCCNc2cc(-c3ccccc3)ccn2)CC1
A: 8.82
